test system: Escherichia coli TOP10; assay: shrunken log2 fold change of peptide-encoding DNA abundance (4.5 h post-induction vs induction); higher = less antimicrobial activity (less host growth inhibition); conditions: time post-induction: 4.5 h; library: site-saturation at positions 5, 18, 19, 20
Here the recorded shrunken log2 fold change is given for each entry.

BIOPOLYMER SEQUENCE | TESTED SYSTEM | shrunken log2 fold change
RRIRQRPPRLPRPRPRPGPEPRP | Escherichia coli TOP10 | 0.0674
RRIRNRPPRLPRPRPRPYSNPRP | Escherichia coli TOP10 | -0.155
RRIRLRPPRLPRPRPRPCSFPRP | Escherichia coli TOP10 | -0.051
RRIRARPPRLPRPRPRPNPPPRP | Escherichia coli TOP10 | 0.458

* * *

tested on: Escherichia coli TOP10; test: shrunken log2 fold change of peptide-encoding DNA abundance (4.5 h post-induction vs induction); higher = less antimicrobial activity (less host growth inhibition); conditions: time post-induction: 4.5 h; library: site-saturation at positions 5, 18, 19, 20

BIOPOLYMER SEQUENCE | shrunken log2 fold change
RRIRHRPPRLPRPRPRPHYSPRP | -0.142
RRIRERPPRLPRPRPRPHQKPRP | -0.0694
RRIRIRPPRLPRPRPRPPCSPRP | -0.339

* * *

system: Escherichia coli TOP10; test: shrunken log2 fold change of peptide-encoding DNA abundance (4.5 h post-induction vs induction); higher = less antimicrobial activity (less host growth inhibition); conditions: time post-induction: 4.5 h; library: site-saturation at positions 5, 18, 19, 20
Documented shrunken log2 fold change across a set of sequences

BIOPOLYMER SEQUENCE | shrunken log2 fold change
RRIRTRPPRLPRPRPRPNAEPRP | 0.25
RRIRERPPRLPRPRPRPVLFPRP | -0.141
RRIRQRPPRLPRPRPRPGHQPRP | -0.00101
RRIRSRPPRLPRPRPRPGHLPRP | -0.236

* * *

tested on: Escherichia coli TOP10; assay: shrunken log2 fold change of peptide-encoding DNA abundance (4.5 h post-induction vs induction); higher = less antimicrobial activity (less host growth inhibition); conditions: time post-induction: 4.5 h; library: site-saturation at positions 5, 18, 19, 20
shrunken log2 fold change by entry:

BIOPOLYMER SEQUENCE | TESTED SYSTEM | shrunken log2 fold change
RRIRTRPPRLPRPRPRPGQLPRP | Escherichia coli TOP10 | 0.226
RRIRSRPPRLPRPRPRPYNHPRP | Escherichia coli TOP10 | -1.54
RRIRQRPPRLPRPRPRPECYPRP | Escherichia coli TOP10 | 0.0583
RRIRKRPPRLPRPRPRPEMMPRP | Escherichia coli TOP10 | 0.113
RRIRHRPPRLPRPRPRPDQPPRP | Escherichia coli TOP10 | 0.183
RRIRFRPPRLPRPRPRPMQPPRP | Escherichia coli TOP10 | 0.287

* * *

system: Escherichia coli TOP10; assay: shrunken log2 fold change of peptide-encoding DNA abundance (4.5 h post-induction vs induction); higher = less antimicrobial activity (less host growth inhibition); conditions: time post-induction: 4.5 h; library: site-saturation at positions 5, 18, 19, 20

BIOPOLYMER SEQUENCE | TESTED SYSTEM | shrunken log2 fold change
RRIRRRPPRLPRPRPRPPWYPRP | Escherichia coli TOP10 | 0.0413
RRIRWRPPRLPRPRPRPHPAPRP | Escherichia coli TOP10 | 0.35
RRIRQRPPRLPRPRPRPLFYPRP | Escherichia coli TOP10 | -0.251
RRIRARPPRLPRPRPRPLPQPRP | Escherichia coli TOP10 | 0.64
RRIRVRPPRLPRPRPRPLFGPRP | Escherichia coli TOP10 | -0.104
RRIRHRPPRLPRPRPRPAAEPRP | Escherichia coli TOP10 | 0.334
RRIRCRPPRLPRPRPRPPFQPRP | Escherichia coli TOP10 | 0.149
RRIRFRPPRLPRPRPRPMIVPRP | Escherichia coli TOP10 | -0.105
RRIRWRPPRLPRPRPRPEEDPRP | Escherichia coli TOP10 | 0.00839
RRIRNRPPRLPRPRPRPDCNPRP | Escherichia coli TOP10 | -0.0899
RRIRQRPPRLPRPRPRPPVLPRP | Escherichia coli TOP10 | 0.155
RRIRRRPPRLPRPRPRPGGWPRP | Escherichia coli TOP10 | 0.824
RRIRVRPPRLPRPRPRPMSNPRP | Escherichia coli TOP10 | 0.0709

* * *

test system: Escherichia coli TOP10; experiment: shrunken log2 fold change of peptide-encoding DNA abundance (4.5 h post-induction vs induction); higher = less antimicrobial activity (less host growth inhibition); settings: time post-induction: 4.5 h; library: site-saturation at positions 5, 18, 19, 20;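 also: peptides expressed intracellularly from a pBAD plasmid library in pooled LB shake-flask culture, induced with 0.3% L-arabinose, DNA abundance read by NGS, three biological replicates, DESeq2 with apeglm shrinkage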
Classes based on shrunken log2 fold change: lower level = under -0.2, middle level = from -0.2 up to 0.03, upper level = 0.03 and over

BIOPOLYMER SEQUENCE | TESTED SYSTEM | CATEGORY
RRIRFRPPRLPRPRPRPDGMPRP | Escherichia coli TOP10 | middle level
RRIRHRPPRLPRPRPRPYGDPRP | Escherichia coli TOP10 | lower level
RRIRSRPPRLPRPRPRPKRQPRP | Escherichia coli TOP10 | middle level
RRIRFRPPRLPRPRPRPNHTPRP | Escherichia coli TOP10 | lower level
RRIRIRPPRLPRPRPRPCKAPRP | Escherichia coli TOP10 | middle level
RRIRPRPPRLPRPRPRPLLWPRP | Escherichia coli TOP10 | middle level
RRIRCRPPRLPRPRPRPGHMPRP | Escherichia coli TOP10 | middle level
RRIRIRPPRLPRPRPRPCPSPRP | Escherichia coli TOP10 | middle level
RRIRDRPPRLPRPRPRPYEHPRP | Escherichia coli TOP10 | upper level
RRIRPRPPRLPRPRPRPTKAPRP | Escherichia coli TOP10 | middle level
RRIRFRPPRLPRPRPRPWPMPRP | Escherichia coli TOP10 | middle level
RRIRIRPPRLPRPRPRPACCPRP | Escherichia coli TOP10 | middle level
RRIRDRPPRLPRPRPRPYLPPRP | Escherichia coli TOP10 | middle level
RRIRPRPPRLPRPRPRPNATPRP | Escherichia coli TOP10 | upper level
RRIRRRPPRLPRPRPRPCSSPRP | Escherichia coli TOP10 | upper level
RRIRFRPPRLPRPRPRPEKDPRP | Escherichia coli TOP10 | lower level
RRIRIRPPRLPRPRPRPQDQPRP | Escherichia coli TOP10 | lower level
RRIRIRPPRLPRPRPRPYGVPRP | Escherichia coli TOP10 | lower level
RRIRIRPPRLPRPRPRPYSCPRP | Escherichia coli TOP10 | middle level
RRIRPRPPRLPRPRPRPLMHPRP | Escherichia coli TOP10 | middle level
RRIRKRPPRLPRPRPRPTCRPRP | Escherichia coli TOP10 | upper level
RRIRTRPPRLPRPRPRPVINPRP | Escherichia coli TOP10 | middle level
RRIRWRPPRLPRPRPRPFQKPRP | Escherichia coli TOP10 | middle level
RRIRLRPPRLPRPRPRPQWIPRP | Escherichia coli TOP10 | middle level
RRIRHRPPRLPRPRPRPPVHPRP | Escherichia coli TOP10 | middle level
RRIRMRPPRLPRPRPRPHWSPRP | Escherichia coli TOP10 | upper level
RRIRQRPPRLPRPRPRPTDDPRP | Escherichia coli TOP10 | middle level
RRIRCRPPRLPRPRPRPQSQPRP | Escherichia coli TOP10 | upper level
RRIRSRPPRLPRPRPRPQPHPRP | Escherichia coli TOP10 | upper level
RRIRCRPPRLPRPRPRPFEVPRP | Escherichia coli TOP10 | middle level
RRIRPRPPRLPRPRPRPCLFPRP | Escherichia coli TOP10 | lower level
RRIRARPPRLPRPRPRPREHPRP | Escherichia coli TOP10 | upper level
RRIRNRPPRLPRPRPRPDGDPRP | Escherichia coli TOP10 | middle level
RRIRSRPPRLPRPRPRPHHGPRP | Escherichia coli TOP10 | middle level
RRIRNRPPRLPRPRPRPCFNPRP | Escherichia coli TOP10 | upper level
RRIRKRPPRLPRPRPRPQQVPRP | Escherichia coli TOP10 | middle level
RRIRDRPPRLPRPRPRPSRAPRP | Escherichia coli TOP10 | upper level
RRIRSRPPRLPRPRPRPGGVPRP | Escherichia coli TOP10 | upper level
RRIRFRPPRLPRPRPRPCTLPRP | Escherichia coli TOP10 | lower level
RRIRIRPPRLPRPRPRPSWKPRP | Escherichia coli TOP10 | lower level
RRIRARPPRLPRPRPRPMNWPRP | Escherichia coli TOP10 | upper level
RRIRHRPPRLPRPRPRPYAMPRP | Escherichia coli TOP10 | lower level
RRIRKRPPRLPRPRPRPNMQPRP | Escherichia coli TOP10 | upper level
RRIRRRPPRLPRPRPRPREIPRP | Escherichia coli TOP10 | upper level
RRIRCRPPRLPRPRPRPSHCPRP | Escherichia coli TOP10 | lower level
RRIRVRPPRLPRPRPRPYHAPRP | Escherichia coli TOP10 | middle level
RRIRQRPPRLPRPRPRPHFEPRP | Escherichia coli TOP10 | upper level
RRIRLRPPRLPRPRPRPCKFPRP | Escherichia coli TOP10 | lower level
RRIRKRPPRLPRPRPRPNTCPRP | Escherichia coli TOP10 | upper level
RRIRKRPPRLPRPRPRPIHYPRP | Escherichia coli TOP10 | middle level
RRIRSRPPRLPRPRPRPCNMPRP | Escherichia coli TOP10 | lower level
RRIRQRPPRLPRPRPRPPEKPRP | Escherichia coli TOP10 | upper level
RRIRPRPPRLPRPRPRPHWKPRP | Escherichia coli TOP10 | middle level
RRIRIRPPRLPRPRPRPLLKPRP | Escherichia coli TOP10 | lower level
